- MEASUREMENT_PROTOCOL: Inhibition of Dengue virus 3 NS5 2'-O-MTase activity assessed as reduction in [3H]AdoMet transfer to 7MeGpppAC4 capped RNA substrate after 30 mins by microbeta liquid scintillation counting method
- Design: species or system dengue virus type 3
pIC50: −log10 of the molar value.
# if value of pIC50 reaches 3, tag MET; if it stays below, tag NOT MET

> print(dat)
                                  structure  label.value
1  Nc1cc(C(F)(F)F)ccc1NC(=O)Nc1cccc(S(=O)(=O)Nc2ccc(C(=O)O)cc2)c1          MET
2                      Cc1ccc(C(=O)O)c(N)c1      NOT MET
3                         Cc1cc(N)c(N)cc1Cl      NOT MET
4  Nc1cc(C(F)(F)F)ccc1NC(=O)Nc1ccc(S(=O)(=O)Nc2ccc(C(=O)O)cc2)cc1          MET
5                      Nc1ccc(C(F)(F)F)cc1N      NOT MET
6  Nc1cc(Cl)ccc1NC(=O)Nc1ccc(S(=O)(=O)Nc2ccc(C(=O)O)cc2)cc1          MET
7  Nc1cc(Cl)ccc1NC(=O)Nc1ccc(S(=O)(=O)Oc2ccc(C(=O)O)cc2)cc1          MET
8  Nc1cc(Cl)ccc1NC(=O)Nc1cccc(S(=O)(=O)Nc2ccc(C(=O)O)cc2)c1          MET
9  Nc1cc(Cl)ccc1NC(=O)Nc1cccc(S(=O)(=O)Oc2ccc(C(=O)O)cc2)c1          MET

Taken from ChEMBL document CHEMBL3877284.
